Origin of the recorded values: ChEMBL document CHEMBL3763096

Please respond with reported log10(IC50) for every item in the list.
Tested on: HaCaT
ASSAY_SUMMARY: Antihyperproliferative activity against human HaCaT cells after 48 hrs by phase contrast microscopic analysis
Assay type: functional, cell-based
All values: log10 IC50 [nM].

Query: Need log10(IC50) of O=C1c2ccsc2C(=O)c2c1cccc2C(F)(F)F , thanks.
Reply: 3.69

Query: Value lookup for log10(IC50); key = COC(=O)c1cc2c(s1)C(=O)c1c(Cl)cccc1C2=O
Reply: 2.95

Query: // log10(IC50) lookup, key: O=C(c1cccs1)c1cc2c(s1)C(=O)c1c(Cl)cccc1C2=O
Reply: 3.19

Query: Which log10(IC50) reading was recorded for the compound CCC(=O)c1cc2c(s1)C(=O)c1c(Cl)cccc1C2=O ?
Reply: 3.44

Query: Consider the compound shown here: O=Cc1cc2c(s1)C(=O)c1c(Br)cccc1C2=O What is its recorded log10(IC50)?
Reply: 3.58

Query: For the compound shown here, O=C(c1ccccc1)c1cc2c(s1)C(=O)c1c(Cl)cccc1C2=O , give the reported log10(IC50).
Reply: 3.25

Query: Returns the measured log10(IC50) for the input compound. Input: CCOC(=O)c1cc2c(s1)C(=O)c1c(Cl)cccc1C2=O
Reply: 3.09

Query: Look at this compound and give its reported log10(IC50). O=C(Oc1ccccc1)c1cc2c(s1)C(=O)c1c(Cl)cccc1C2=O
Reply: 4.02

Query: I have this compound here, O=C(c1cccnc1)c1cc2c(s1)C(=O)c1c(Cl)cccc1C2=O , and I need its recorded log10(IC50).
Reply: 2.76

Query: Returns the measured log10(IC50) for the input compound. Input: CC(=O)c1cc2c(s1)C(=O)c1c(Br)cccc1C2=O
Reply: 3.18

Query: Please look up its log10(IC50): CCN(CC)C(=O)c1cc2c(s1)C(=O)c1c(Cl)cccc1C2=O
Reply: 2.86

Query: Please report the recorded log10(IC50) for COC(=O)c1cc2c(s1)C(=O)c1c(Br)cccc1C2=O .
Reply: 3.34

Query: Would you kindly share the measured log10(IC50) for O=Cc1cc2c(s1)C(=O)c1c(Cl)cccc1C2=O ?
Reply: 3.67

Query: I would be grateful if you could share the reported log10(IC50) for O=C(c1ccccc1)c1cc2c(s1)C(=O)c1c(Br)cccc1C2=O .
Reply: 4.12
